System: UACC-62 melanoma
Assay: NCI-60 one-dose screen, 48 h
Conditions: 10 µM unless noted
Description: Growth inhibition of the UACC-62 human tumor cell line is measured as a screen for anti-cancer activity. Cells are grown in 96 well plates and exposed to the test compound for 48 hours. Compounds are tested at a single concentration, which is 10^-5 M for most compounds. The reported endpoint is percent growth (GI% or GIPRCNT), where numbers from 0 - 100% represent growth inhibition, and numbers from -100% - 0 represent cell death. For example, a value of 40 represents 60% growth inhibition. […]
The panel holds about 83,000 compounds, 20% with a hit somewhere; the sample as a whole holds those more often. Calls of active or inactive are those of the source. Rule for the calls: active = growth percent below 10; inactive = the rest.
Use one of these outcomes when replying: yes (active), no (inactive)

Before answering, review these 6 worked examples.
[
  {
    "COMPOUND": "Clc1cc(Cl)cc(Nc2ccc3cc(OCCCN4CCOCC4)ccc3n2)c1",
    "TARGET UNDER TEST": "UACC-62 melanoma",
    "LABEL CLASS": "no"
  },
  {
    "COMPOUND": "COC(=O)c1c2c(c(C)[n+]([O-])c1C)C(=O)C(NCc1ccc(F)c(Cl)c1)=CC2=O",
    "TARGET UNDER TEST": "UACC-62 melanoma",
    "LABEL CLASS": "yes"
  },
  {
    "COMPOUND": "Fc1c[c-]c(-c2ccccn2)c(F)c1.[CH3-].[Pt+2].c1ccc(P(C[PH+](c2ccccc2)c2ccccc2)c2ccccc2)cc1",
    "TARGET UNDER TEST": "UACC-62 melanoma",
    "LABEL CLASS": "yes"
  },
  {
    "COMPOUND": "Cc1c2c(c(C)c3c1oc1cc(O)ccc13)C(=O)N(CCN1CCCCC1)C2=O",
    "TARGET UNDER TEST": "UACC-62 melanoma",
    "LABEL CLASS": "no"
  },
  {
    "COMPOUND": "C#Cc1cccc(NC(=O)c2ccc(NC(=O)CCl)cc2)c1",
    "TARGET UNDER TEST": "UACC-62 melanoma",
    "LABEL CLASS": "yes"
  },
  {
    "COMPOUND": "COc1ccc(NC(=O)CSc2nc(C)c(C(C)=O)n2-c2ccc(Cl)cc2)cc1",
    "TARGET UNDER TEST": "UACC-62 melanoma",
    "LABEL CLASS": "no"
  }
]

Record lookup: outcome of this test for N#CC1=C(c2ccc(Br)cc2)NC(SCC(=O)c2ccc(Br)cc2)NC1=O (configuration not stated) ? no

Cool, now `CCN1CCN(c2nc(C)cc(NCc3cc(Nc4ccnc5cc(Cl)ccc45)ccc3F)n2)CC1` yes

Can you handle `Cc1nn(-c2ccccc2)c(Oc2ccc(Cl)cc2)c1/C=N\N=c1/sc2ccccc2n1C` next? no

Also check `C=CCSc1nc2ccccc2cc1/C=N/O` no

Next compound: `COc1cc(/C=N/NC(=O)Cn2c(C(C)C)nc3ccccc32)ccc1O` no

Try this compound next: COc1cc(OC)cc(C2CC(=O)Nc3c2c(C)nn3-c2nc3ccccc3[nH]2)c1 (configuration not stated) yes

* * *

system: DU-145 prostate; assay: NCI-60 one-dose screen, 48 h; details: 10 µM unless noted
This is part of a sample that, as a whole, favours compounds with a hit. Of some 83,000 tested, about 20% had one in any assay. Active and inactive are the calls of the source. Rule for the calls: active = growth percent below 10; inactive = the rest.
Respond only with the outcome that fits, drawn from Y (active), N (inactive)

These recorded examples may help you get a feel for the data.
[
  {
    "COMPOUND": "O=C(Nc1ccc(Nc2ccncc2)cc1)c1ccc(C(=O)Nc2ccc(Nc3ccncc3)cc2)cc1",
    "LABEL CLASS": "N"
  },
  {
    "COMPOUND": "C=C(C)[C@@H]1CC[C@]2(C(=O)NC3CCCCC3)CC[C@]3(C)[C@H](CC[C@@H]4[C@@]5(C)CCCNC(C)(C)[C@@H]5CC[C@]43C)[C@@H]12",
    "LABEL CLASS": "N"
  },
  {
    "COMPOUND": "C[C@@H]1N=C(c2ccc3ccccc3n2)Nc2nc3ccccn3c2C1=O",
    "LABEL CLASS": "N"
  }
]

Called result for `COC(=O)[C@]12CC[C@@H](C)[C@H](C)[C@@H]1C1=CC[C@@H]3[C@@]4(C)C(C=O)=C[C@@](C)(COC(C)=O)C4=CC[C@@]3(C)[C@]1(C)CC2` Y

Request: COc1cccc2c1C(=O)c1c(O)c3c(c(O)c1C2=O)CC(O)(/C(C)=N/NC(=O)CCCCC(=O)N/N=C(\C)C1(O)Cc2c(O)c4c(c(O)c2C(OC2CC(N)C(O)C(C)O2)C1)C(=O)c1c(OC)cccc1C4=O)CC3OC1CC(N)C(O)C(C)O1 (configuration not stated) Y

Do the same for `COc1nc(N(C)O)nc(N(C)O)n1` please N

Quick one: `Cn1cc2c(c1)-c1nc(Nc3ccccc3)ncc1CC2` N
